Experiment Description: Apparent permeability across apical to basolateral side in dog MDCK-MDR1 cells at 5 uM measured after 60 mins
Assay type: ADME, cell-based, Canis lupus familiaris
Metric: Papp A→B at 1 h, 5 µM (×10⁻⁶ cm/s)
One number for each entry, in ×10⁻⁶ cm/s.

Kindly note the recorded Papp A→B at 1 h, 5 µM for COc1cc(C(=O)NC[C@](O)(c2cc(C(C)(C)O)c(F)c(-c3ccc(F)cc3)n2)C(F)(F)F)cc2cc(C)nnc12 , which is 9.8

---

Experiment Description: Cmax in Beagle dog at 0.5 mg/kg, po measured upto 24 hrs by LC-MS/MS analysis
Assay type: ADME, organism-based, Canis lupus familiaris
Particulars: in vivo
Metric: Cmax (ng/mL)
One number for each entry, in ng/mL.

Kindly note the recorded Cmax for COc1cc(C(=O)NC[C@](O)(c2cc(C(C)(C)O)c(F)c(-c3ccc(F)cc3)n2)C(F)(F)F)cc2cc(C)nnc12 , which is 249

---

Experiment Description: Clearance in Sprague-Dawley rat at 1.25 mg/kg, iv
Format: ADME, organism-based
Particulars: in vivo
Recorded clearance split into classes bin 1 = under 10 mL/min/kg, bin 2 = from 10 mL/min/kg up to 60 mL/min/kg, bin 3 = 60 mL/min/kg and over

Substance Smiles	Category Label
COc1cc(C(=O)NC[C@](O)(c2cc3c(c(-c4ccc(F)cc4)n2)OC[C@]3(C)NC(C)=O)C(F)(F)F)cc2cc(C)cnc12	bin 2
COc1cc(C(=O)NC[C@](O)(c2cc3c(c(-c4ccc(F)cc4)n2)OC[C@]3(C)N)C(F)(F)F)ccc1OC[C@@H](C)O	bin 3

Would you mind sorting COc1cc(C(=O)NC[C@](O)(c2cc3c(c(-c4ccc(F)cc4)n2)OC[C@]3(C)NS(C)(=O)=O)C(F)(F)F)cn2cc(CO)nc12 into the appropriate category?
bin 2

Would you mind sorting CC(=O)N[C@@]1(C)COc2c1cc([C@@](O)(CNC(=O)c1cc(OC3CC3)c3ncc(F)cc3c1)C(F)(F)F)nc2-c1ccc(F)cc1 into the appropriate category?
bin 1

Would you mind sorting CC(=O)N[C@@]1(C)COc2c1cc([C@@](O)(CNC(=O)c1cc(OC3CC3)c3ncccc3c1)C(F)(F)F)nc2-c1ccc(F)cc1 into the appropriate category?
bin 1

Would you mind sorting COc1cc(C(=O)NC[C@](O)(c2cc3c(c(-c4ccc(F)cc4)n2)OC[C@]3(C)NS(C)(=O)=O)C(F)(F)F)ccc1OC[C@@H](C)O into the appropriate category?
bin 2

Would you mind sorting COc1cc(C(=O)NC[C@](O)(c2cc3c(c(-c4ccc(F)cc4)n2)OC[C@]3(C)NC(C)=O)C(F)(F)F)cc2cccnc12 into the appropriate category?
bin 2

Would you mind sorting COc1cc(C(=O)NC[C@](O)(c2cc3c(c(-c4ccc(F)cc4)n2)OC[C@]3(C)NS(C)(=O)=O)C(F)(F)F)cc2nc(N)sc12 into the appropriate category?
bin 3

---

Experiment Description: Half life in Beagle dog at 0.5 mg/kg, iv measured upto 24 hrs by LC-MS/MS analysis
Type: ADME, organism-based, Canis lupus familiaris
Particulars: in vivo
Metric: half-life (h)
Answers are plain numbers, in h.

Kindly note the recorded half-life for COc1cc(C(=O)NC[C@](O)(c2cc(C(C)(C)O)c(F)c(-c3ccc(F)cc3)n2)C(F)(F)F)cc2cc(C)nnc12 , which is 4.25

The measurements presented in this section are drawn from ChEMBL document CHEMBL5550217.
